Target: Nuclear receptor ROR-gamma (Homo sapiens) (UniProt P51449)
Sequence (P51449 whole entry, looked up): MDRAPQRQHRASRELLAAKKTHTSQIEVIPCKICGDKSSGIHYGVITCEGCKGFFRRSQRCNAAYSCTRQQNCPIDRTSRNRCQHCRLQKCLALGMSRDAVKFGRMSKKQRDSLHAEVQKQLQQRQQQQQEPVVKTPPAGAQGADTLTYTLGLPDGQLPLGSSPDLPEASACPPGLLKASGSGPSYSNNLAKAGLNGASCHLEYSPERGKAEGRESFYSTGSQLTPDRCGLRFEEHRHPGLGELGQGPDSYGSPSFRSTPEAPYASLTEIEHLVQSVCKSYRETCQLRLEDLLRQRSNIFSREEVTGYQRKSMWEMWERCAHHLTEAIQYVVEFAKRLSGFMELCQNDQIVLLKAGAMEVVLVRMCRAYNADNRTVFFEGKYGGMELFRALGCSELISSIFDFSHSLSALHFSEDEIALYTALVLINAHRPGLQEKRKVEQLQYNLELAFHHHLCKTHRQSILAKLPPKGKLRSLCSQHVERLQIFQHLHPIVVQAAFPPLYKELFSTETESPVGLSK
Test: qHTS assay for small molecule antagonists of the retinoid-related orphan receptor gamma (ROR-gamma) signaling pathway (AID 651802); further: nearly all actives have a fitted effect of over 60% in size
Details: ROR-gamma antagonist cell reporter assay; series mostly up to 92.2 µM
Experimental: National Center for Advancing Translational Sciences [NCATS] NIH Chemical Genomics Center [NCGC] National Institutes of Environmental Health Sciences [NIEHS] National Toxicology Program [NTP] […] The CHO cell-based assay utilizes a TET-inducible ROR expression factor and ROR response element-LUC reporter gene. Reporter activity was induced using doxycycline and measured after 16hr incubation. […]
Records with an inconclusive call do not appear. Active and inactive are the calls of the source. The call rests on the fitted dose curve; in most records, active means well fitted inhibition curve with a large enough effect; inconclusive means small, poorly fitted or top-dose-only effect; inactive means no such curve, though single readings can be large or run the other way.
Would you mind answering with one of these outcomes? yes = active, no = inactive

Field: outcome | Entry: COc1ccc2[nH]cc(CCNC(C)=O)c2c1 no

Field: outcome | Entry: O=c1[nH]cc(F)c(=O)[nH]1 no

Field: outcome | Entry: NCCS(=O)(=O)O no

Field: outcome | Entry: CC(C)NCC(O)c1ccc(O)c(O)c1 (stereo unspecified) no

Field: outcome | Entry: Nc1c2c(nc3ccccc13)CCCC2 no

Field: outcome | Entry: Clc1ccc(C(c2ccccc2Cl)C(Cl)Cl)cc1 (stereo unspecified) yes

* * *

Experiment: qHTS of pediatric cancer cell lines to identify multiple opportunities for drug repurposing: Primary screen for Rh18 cells (AID 1347102); further: on the % scale 0 is the no-effect control and ±100 the full control effect; nearly all actives have a fitted effect of over 65% in size
Conditions: Rh18 rhabdomyosarcoma viability, CellTiter-Glo luminescence, 48 h; series mostly up to 46 µM
Results filed as inconclusive are left out. Activity calls are given as the source filed them. The call rests on the fitted dose curve; in most records, active means well fitted cell-killing curve with a large enough effect; inconclusive means small, poorly fitted or top-dose-only effect; inactive means flat fitted curve, though single readings scatter.
ENDPOINT LABEL: outcome

MOLECULE: Cc1cn([C@H]2C=C[C@@H](CO)O2)c(=O)[nH]c1=O
REPORTED: inactive

MOLECULE: CN1C(C(=O)Nc2ccccn2)=C(O)c2ccccc2S1(=O)=O
REPORTED: inactive

MOLECULE: COc1nc(C)nc(Cl)c1NC1=NCCN1
REPORTED: inactive

* * *

Experiment: Quantitative high throughput screen for delayed death inhibitors of the malarial parasite plastid, 48 hour incubation (AID 488752); further: on the % scale 0 is the no-effect control and ±100 the full control effect; nearly all actives have a fitted effect of over 65% in size
Conditions: Plasmodium falciparum growth; series mostly up to 28.7 µM
Inconclusive results are not listed. Active and inactive are the calls of the source. The call rests on the fitted dose curve; in most records, active means well fitted inhibition curve with a large enough effect; inconclusive means small, poorly fitted or top-dose-only effect, or effect the other way; inactive means flat fitted curve, though single readings scatter.
ENDPOINT LABEL: outcome

# example entries with known answers
COMPOUND: CN(Cc1cnc2nc(N)nc(N)c2n1)c1ccc(C(=O)N[C@@H](CCC(=O)O)C(=O)O)cc1
outcome: inactive
//
COMPOUND: COc1ccc(C2CNC(=O)C2)cc1OC1CCCC1 (stereo unspecified)
outcome: inactive
//
COMPOUND: Cc1ccccc1N1C(=O)c2cc(S(N)(=O)=O)c(Cl)cc2NC1C (stereo unspecified)
outcome: inactive
//
COMPOUND: CN1C(C(=O)Nc2ccccn2)=C(O)c2ccccc2S1(=O)=O
outcome: inactive
//
COMPOUND: NS(=O)(=O)c1cc2c(cc1Cl)NCNS2(=O)=O
outcome: inactive

Note: attention shifts to another entry.
Fill in the blank: the reported outcome of CC(C)NCC(O)COc1ccc(CCOCC2CC2)cc1 (stereo unspecified) is ____. inactive

* * *

Assay: Nrf2 qHTS screen for inhibitors: Validation (AID 493153);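 further: A549 cells with ARE-driven firefly luciferase reporter reporting Nrf2 activity; % of control where 0% means no effect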
Details: A549 ARE-Fluc reporter, 18-24 h; luciferase luminescence
Inconclusive results are not listed. Active and inactive are the calls of the source. The call rests on the fitted dose curve; in most records, active means well fitted inhibition curve with a large enough effect in the main read-out, with a control signal flat (not every such curve was filed as active); inconclusive means small, poorly fitted or top-dose-only effect, or effect the other way, or a change in a side signal; inactive means no such curve, though single readings can be large or run the other way.
ENDPOINT LABEL: outcome

# example entries with known answers
COMPOUND: NC(=O)OCC(COC(N)=O)c1ccccc1
REPORTED: inactive
//
COMPOUND: Cn1ccc2cc3c(cc21)CCN3C(=O)Nc1cccnc1
REPORTED: inactive
//
COMPOUND: Cc1ccccc1N1C(=O)c2cc(S(N)(=O)=O)c(Cl)cc2NC1C (configuration not stated)
REPORTED: inactive
//
COMPOUND: COC(=O)Nc1nc2ccc(C(=O)c3cccs3)cc2[nH]1
REPORTED: inactive
//
COMPOUND: Cc1cn([C@H]2C=C[C@@H](CO)O2)c(=O)[nH]c1=O
REPORTED: inactive

Fill in the blank: the reported outcome of C[C@](N)(Cc1ccc(O)c(O)c1)C(=O)O is ____. inactive

Fill in the blank: the reported outcome of COc1nc(C)nc(Cl)c1NC1=NCCN1 is ____. inactive

* * *

Assay: qHTS drug screen for cell cycle checkpoint inhibitors in PARPi-resistant BRCA-mutant ovarian cancer cell lines. (AID 1963452)
Conditions: PEO1/OlaR viability, CellTiter-Glo luminescence, 96 h; measured here: PEO1 parental Z-AUC; stronger effect = lower value
ENDPOINT LABEL: Z-AUC
# answer = number (no unit)

Fill in the blank: the reported Z-AUC of CC(C)NCC(O)c1ccc(O)c(O)c1 (configuration not stated) is ____. 0.911

Fill in the blank: the reported Z-AUC of O=C1c2c(O)ccc(O)c2C(=O)c2c(NCCNCCO)ccc(NCCNCCO)c21 is ____. -2.48

Fill in the blank: the reported Z-AUC of CC1(CN2CCC(n3c(=O)[nH]c4ccccc43)CC2)OCc2ccccc2-n2cccc21 (configuration not stated) is ____. 0.846

Fill in the blank: the reported Z-AUC of COC(=O)Nc1nc2ccc(C(=O)c3cccs3)cc2[nH]1 is ____. -1.94

Fill in the blank: the reported Z-AUC of CN1CCC(=C2c3ccccc3C=Cc3ccccc32)CC1 is ____. 0.535

Fill in the blank: the reported Z-AUC of CCCCc1oc2ccccc2c1C(=O)c1cc(I)c(OCCN(CC)CC)c(I)c1 is ____. -0.649

Fill in the blank: the reported Z-AUC of O=c1c(-c2ccc(O)cc2)coc2cc(O)cc(O)c12 is ____. 0.793

Fill in the blank: the reported Z-AUC of CCC1(C)CC(=O)NC1=O (configuration not stated) is ____. 1.31

Fill in the blank: the reported Z-AUC of Cc1cc(C(C)(C)C)cc(C)c1CC1=NCCN1 is ____. 0.684

Fill in the blank: the reported Z-AUC of CCCNCC(O)COc1ccccc1C(=O)CCc1ccccc1 (configuration not stated) is ____. 0.498

Fill in the blank: the reported Z-AUC of CS(=O)(=O)Nc1ccc([N+](=O)[O-])cc1Oc1ccccc1 is ____. 1.22

Fill in the blank: the reported Z-AUC of NC(=O)NO is ____. 1.02

* * *

Give measured viability, percent of control for each item. Keep answers brief.
Experiment: Cell Proliferation Assay against the HBL1 Cell Line (AID 651646);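 further: cells exposed to compound for 48 h before reading; 100% = DMSO and 0% = 9.2 µM bortezomib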
Settings: HBL1 DLBCL cells; at 46.1 µM (top of the series) unless noted
Numeric answer only, unit % assumed.

Fill in the blank: the reported viability, percent of control of CC1(CN2CCC(n3c(=O)[nH]c4ccccc43)CC2)OCc2ccccc2-n2cccc21 (centres undefined) is ____. 6.74

Fill in the blank: the reported viability, percent of control of CC[C@@]1(O)C(=O)OCc2c1cc1n(c2=O)Cc2cc3c(CN(C)C)c(O)ccc3nc2-1 is ____. 33.6

Fill in the blank: the reported viability, percent of control of CN(C)C(=N)N=C(N)N is ____. 125

* * *

Tested on: PC49
Assay: qHTS profiling for inhibitors of Plasmodium falciparum proliferation (AID 504749); further: nearly all actives have a fitted effect of over 60% in size
Settings: P. falciparum in erythrocytes, SYBR Green DNA, 72 h; series mostly up to 28.7 µM
Records with an inconclusive call do not appear. Calls of active or inactive are those of the source. Calls follow the shape of the dose curve; as a rule, active = well fitted inhibition curve with a large enough effect; inconclusive = small, poorly fitted or top-dose-only effect; inactive = flat fitted curve, though single readings scatter.
Would you mind answering with one of these outcomes? active, inactive

Field: outcome | Entry: CN(C)C(=N)N=C(N)N inactive

Field: outcome | Entry: COc1ccccc1OCC(O)CN1CCN(CC(=O)Nc2c(C)cccc2C)CC1 (stereo unspecified) inactive

Field: outcome | Entry: CN(C)CCOC(c1ccccc1)c1ccccc1 inactive

Field: outcome | Entry: CS(=O)(=O)CCNCc1ccc(-c2ccc3ncnc(Nc4ccc(OCc5cccc(F)c5)c(Cl)c4)c3c2)o1 inactive

Field: outcome | Entry: NCCCCCC(=O)O inactive

Field: outcome | Entry: CC(COc1ccccc1)N(CCCl)Cc1ccccc1 (stereo unspecified) inactive

Field: outcome | Entry: CN1C(C(=O)Nc2ccccn2)=C(O)c2ccccc2S1(=O)=O inactive

Field: outcome | Entry: CC(C)C(=O)Nc1ccc([N+](=O)[O-])c(C(F)(F)F)c1 inactive

Field: outcome | Entry: COc1ccc2[nH]cc(CCNC(C)=O)c2c1 inactive

Field: outcome | Entry: CC(C)(Oc1ccc(C2CC2(Cl)Cl)cc1)C(=O)O (stereo unspecified) inactive

Field: outcome | Entry: NC(=O)NO inactive

Field: outcome | Entry: Cc1cc(C(C)(C)C)cc(C)c1CC1=NCCN1 inactive

Field: outcome | Entry: CN1CCN2c3ccccc3Cc3ccccc3C2C1 (stereo unspecified) inactive

Field: outcome | Entry: CNCCCC12CCC(c3ccccc31)c1ccccc12 inactive

Field: outcome | Entry: NC(=O)OCC(COC(N)=O)c1ccccc1 inactive

Field: outcome | Entry: COc1nc(C)nc(Cl)c1NC1=NCCN1 inactive

Field: outcome | Entry: Nc1c2c(nc3ccccc13)CCCC2 inactive

Field: outcome | Entry: Cc1cc(C(C)(C)C)c(O)c(C)c1CC1=NCCN1 inactive

Field: outcome | Entry: Cn1cnc2c1c(=O)[nH]c(=O)n2C inactive

Field: outcome | Entry: CC(C)Cc1ccc(C(C)C(=O)O)cc1 (stereo unspecified) inactive

Field: outcome | Entry: Cc1ccc(-c2cc(C(F)(F)F)nn2-c2ccc(S(N)(=O)=O)cc2)cc1 inactive

Field: outcome | Entry: Clc1ccccc1C(c1ccccc1)(c1ccccc1)n1ccnc1 active

Field: outcome | Entry: CN(Cc1cnc2nc(N)nc(N)c2n1)c1ccc(C(=O)N[C@@H](CCC(=O)O)C(=O)O)cc1 active

Field: outcome | Entry: Nc1nc2c(ncn2COC(CO)CO)c(=O)[nH]1 inactive

Field: outcome | Entry: COc1ccccc1N1CCN(CC(O)COc2cccc3ccccc23)CC1 (stereo unspecified) inactive

Field: outcome | Entry: O=C1N(c2ccccc2)c2ccccc2C1(Cc1ccncc1)Cc1ccncc1 inactive

Source: PubChem BioAssay (NCATS)
